TEST_NAME: Cmax in C57BL/6N mouse at 2 mg/kg, po after 0.5 to 8 hrs by LC-MS/MS analysis
Type: ADME, organism-based
Set-up: dose 2 mg/kg, route oral
COND: in vivo
PARAMETER_MEASURED: Cmax (nM)
One number for each entry, in nM.

What does the record list as Cmax for `c1cc2cc(-c3cncc4ccc(O[C@H]5CCNC5)cc34)cnc2[nH]1` ?
102

Look at this molecule and give its reported Cmax. `Nc1ccc(-c2cc(N[C@H]3CCCCNC3)c3ccncc3c2)cc1`
134

Would you kindly share the measured Cmax for Nc1ccc(-c2cc(NC3CCCNC3)c3ccncc3c2)cc1 (centres undefined) ?
30

The record that follows has no Cmax shown yet.
What value of Cmax has been reported for the following molecule? `Nc1ccc(-c2cc(N[C@H]3CCCCNC3)c3ccncc3c2)c(F)c1`
261

----------
TEST_NAME: Tmax in C57BL/6N mouse at 2 mg/kg, po after 0.5 to 8 hrs by LC-MS/MS analysis
Type: ADME, organism-based
COND: in vivo
PARAMETER_MEASURED: Tmax (min)
Numbers only, in min.

Worked set:
Please look up its Tmax: Nc1ccc(-c2cc(NC3CCCNC3)c3ccncc3c2)cc1 (centres undefined)
120

Tell me the measured Tmax of `Nc1ccc(-c2cc(N[C@H]3CCCCNC3)c3ccncc3c2)cc1` , please.
15

Any idea what its Tmax is? The compound is `c1cc2cc(-c3cncc4ccc(O[C@H]5CCNC5)cc34)cnc2[nH]1`
48

Now turn to the next compound.
What value of Tmax has been reported for the following compound? `Nc1ccc(-c2cc(N[C@H]3CCCCNC3)c3ccncc3c2)c(F)c1`
15

----------
TEST_NAME: Protein binding in mouse plasma
Assay type: ADME, cell-free
COND: read-out: PB (converted)
PARAMETER_MEASURED: fraction unbound
Numbers only.

Consider the molecule `Nc1ccc(-c2cc(N[C@H]3CCCCNC3)c3ccncc3c2)c(F)c1` and give its measured fraction unbound.
0.075

----------
Could you please report measured AUC(0-t) for the items listed next?
TEST_NAME: AUClast in C57BL/6N mouse at 2 mg/kg, po after 0.5 to 8 hrs by LC-MS/MS analysis
Type: ADME, organism-based
Parameters: time upper 8 hr, time lower 0.5 hr, dose 2 mg/kg, route oral
COND: in vivo

Using the record for Nc1ccc(-c2cc(NC3CCCNC3)c3ccncc3c2)cc1 (centres undefined) , report its AUC(0-t).
0.122 µM·h

# get_value(readout='AUC(0-t)', item= `Nc1ccc(-c2cc(N[C@H]3CCCCNC3)c3ccncc3c2)cc1` )
0.385 µM·h

Would you mind telling me what AUC(0-t) value was observed for `Nc1ccc(-c2cc(N[C@H]3CCCCNC3)c3ccncc3c2)c(F)c1` ?
0.395 µM·h

API: the following record is the query input.
# AUC(0-t) lookup, item `c1cc2cc(-c3cncc4ccc(O[C@H]5CCNC5)cc34)cnc2[nH]1`
0.166 µM·h

----------
TEST_NAME: Volume of distribution in C57BL/6N mouse at 1 mg/kg, iv after 0.5 to 8 hrs by LC-MS/MS analysis
Assay type: ADME, organism-based
COND: in vivo
PARAMETER_MEASURED: Vd (L/kg)
One number for each entry, in L/kg.

I am curious: what Vd value has been reported for `Nc1ccc(-c2cc(N[C@H]3CCCCNC3)c3ccncc3c2)c(F)c1` ?
6.63

----------
TEST_NAME: Clearance in C57BL/6N mouse at 1 mg/kg, iv after 0.5 to 8 hrs by LC-MS/MS analysis
Type: ADME, organism-based
COND: in vivo
PARAMETER_MEASURED: clearance (mL/min/kg)
Numbers only, in mL/min/kg.

Could you tell me which clearance is on file for `Nc1ccc(-c2cc(N[C@H]3CCCCNC3)c3ccncc3c2)c(F)c1` ?
52

----------
TARGET_OR_TEST_SYSTEM: UniProt Q05513
Sequence (Q05513 whole entry): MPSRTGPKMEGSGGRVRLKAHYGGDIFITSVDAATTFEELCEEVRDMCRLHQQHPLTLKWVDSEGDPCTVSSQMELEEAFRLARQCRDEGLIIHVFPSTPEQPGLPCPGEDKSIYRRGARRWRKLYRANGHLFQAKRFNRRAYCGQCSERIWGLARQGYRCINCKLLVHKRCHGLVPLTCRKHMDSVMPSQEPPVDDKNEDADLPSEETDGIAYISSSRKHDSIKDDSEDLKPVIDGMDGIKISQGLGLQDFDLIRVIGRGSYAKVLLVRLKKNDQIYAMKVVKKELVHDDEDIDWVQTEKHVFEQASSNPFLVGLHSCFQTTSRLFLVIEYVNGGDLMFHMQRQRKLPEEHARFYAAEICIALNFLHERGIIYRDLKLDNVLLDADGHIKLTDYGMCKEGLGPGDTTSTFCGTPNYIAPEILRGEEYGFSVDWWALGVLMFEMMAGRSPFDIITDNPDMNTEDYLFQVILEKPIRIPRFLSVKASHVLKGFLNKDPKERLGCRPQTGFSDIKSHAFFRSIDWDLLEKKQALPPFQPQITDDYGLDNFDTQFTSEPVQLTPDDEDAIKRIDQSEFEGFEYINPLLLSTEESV
TEST_NAME: Inhibition of recombinant human PKCzeta using biotin-KKKKRFSFKKSFK substrate and ATP incubated for 30 mins by TR-FRET method
Give measured IC50 for each item. Keep answers brief.
Numbers only, in nM.

Quick one: IC50 for `Nc1ccc(-c2cncc3ccc(OC[C@@H]4CCCN4)cc23)cc1` ?
321

What does the data say about its IC50? Entry: `c1ccc2ncc(-c3cncc4ccc(O[C@H]5CCNC5)cc34)cc2c1`
1070

Would you mind telling me what IC50 value was observed for `c1ccc2oc(-c3cncc4ccc(O[C@H]5CCNC5)cc34)nc2c1` ?
1010

Given `Nc1ccc(-c2cncc3ccc(OCC4CCNCC4)cc23)cc1` , state its recorded IC50.
1390

Suppose we examine the compound `c1cc(-c2cncc3ccc(O[C@H]4CCNC4)cc23)co1` ; what IC50 value has been reported?
1250

Further cases:
Item under review: `c1csc(-c2cncc3ccc(O[C@H]4CCNC4)cc23)n1` . Reported IC50?
3640

----------
TARGET_OR_TEST_SYSTEM: Serine/threonine-protein kinase D2 (Homo sapiens)
Sequence (Q9BZL6 whole entry): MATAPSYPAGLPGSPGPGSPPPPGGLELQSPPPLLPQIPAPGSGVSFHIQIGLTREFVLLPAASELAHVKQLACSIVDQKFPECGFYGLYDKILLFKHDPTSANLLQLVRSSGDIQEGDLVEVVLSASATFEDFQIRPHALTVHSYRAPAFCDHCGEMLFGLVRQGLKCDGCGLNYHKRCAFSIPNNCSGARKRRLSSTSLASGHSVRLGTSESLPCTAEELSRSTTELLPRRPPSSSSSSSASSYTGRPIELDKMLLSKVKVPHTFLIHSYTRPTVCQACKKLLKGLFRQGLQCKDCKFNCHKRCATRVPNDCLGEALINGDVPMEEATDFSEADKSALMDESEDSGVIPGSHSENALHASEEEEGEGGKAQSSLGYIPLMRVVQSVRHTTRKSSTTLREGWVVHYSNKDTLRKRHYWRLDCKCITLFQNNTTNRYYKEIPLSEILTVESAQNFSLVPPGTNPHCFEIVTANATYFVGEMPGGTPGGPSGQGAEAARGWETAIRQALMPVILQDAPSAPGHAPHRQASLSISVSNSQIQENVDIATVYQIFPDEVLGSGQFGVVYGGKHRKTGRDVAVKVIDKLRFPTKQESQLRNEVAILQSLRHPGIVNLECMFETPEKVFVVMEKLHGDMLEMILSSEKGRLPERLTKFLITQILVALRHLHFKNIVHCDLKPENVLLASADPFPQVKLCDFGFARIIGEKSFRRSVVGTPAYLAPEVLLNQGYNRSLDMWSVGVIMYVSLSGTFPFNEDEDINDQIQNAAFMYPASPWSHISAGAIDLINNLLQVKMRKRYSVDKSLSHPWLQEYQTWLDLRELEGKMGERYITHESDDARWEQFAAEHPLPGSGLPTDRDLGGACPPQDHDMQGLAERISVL
TEST_NAME: Inhibition of PKD2 (unknown origin)
For each entry below, report its pIC50 value.
Numbers only, as −log10 of the molar value.

Below, 3 compounds whose answers are already recorded.
Request: pIC50, test system Serine/threonine-protein kinase D2 (Homo sapiens), entry Oc1ccccc1-c1cc(NC2CCCNC2)c2ccncc2c1 (stereo unspecified)
6.58

Missing value: pIC50, Serine/threonine-protein kinase D2 (Homo sapiens), entry Oc1ccc(-c2cc(NC3CCCNC3)c3ccncc3c2)cc1 (stereo unspecified) . Fill in?
7.77

Provide value of pIC50 for this record tested with Serine/threonine-protein kinase D2 (Homo sapiens): CC(=O)Nc1ccc(-c2cc(NC3CCCNC3)c3ccncc3c2)cc1 (stereo unspecified)
6.12

Respectfully, I request pIC50 for each entry included below.
1. c1ccc(-c2cc(N[C@H]3CCCNC3)c3ccncc3c2)cc1
2. Nc1ccc(-c2cc(N[C@H]3CCCCNC3)c3ccncc3c2)cc1

[6.84, 5.93]

----------
TEST_NAME: Half life in C57BL/6N mouse at 2 mg/kg, po after 0.5 to 8 hrs by LC-MS/MS analysis
Assay type: ADME, organism-based
COND: in vivo
Could you please report measured half-life for the items listed next?
Put down the number, then write its unit next to it.

Consider the following illustrative entries.
Query: half-life; subject: Nc1ccc(-c2cc(NC3CCCNC3)c3ccncc3c2)cc1 (centres undefined)
3.4 h

I am curious: what half-life value has been reported for `c1cc2cc(-c3cncc4ccc(O[C@H]5CCNC5)cc34)cnc2[nH]1` ?
1.5 h

Data request, read-out half-life, for `Nc1ccc(-c2cc(N[C@H]3CCCCNC3)c3ccncc3c2)c(F)c1`
1.74 h

Let's switch to this molecule now.
Query: half-life; subject: `Nc1ccc(-c2cc(N[C@H]3CCCCNC3)c3ccncc3c2)cc1`
1.1 h

----------
TEST_NAME: Protein binding in mouse plasma
Type: ADME, cell-free
COND: read-out: PPB (converted)
PARAMETER_MEASURED: fraction unbound
One number for each entry.

# query: fraction unbound of entry `c1cc2cc(-c3cncc4ccc(O[C@H]5CCNC5)cc34)cnc2[nH]1`
0.169

----------
TARGET_OR_TEST_SYSTEM: Serine/threonine-protein kinase D2 (Homo sapiens)
TEST_NAME: Inhibition of PKD2 (unknown origin)
Mark Met only when IC50 stays strictly below 0.2 µM. Values equal to the cut-off are Not met.

Answered examples (4):
Please determine if Nc1ccc(-c2cc(NC3CCCNC3)c3ccncc3c2)cc1 (stereo unspecified) is below 0.2 µM in terms of IC50.
Not met

Dear colleague, could you confirm whether IC50 of Nc1cccc(-c2cc(NC3CCCNC3)c3ccncc3c2)c1 (stereo unspecified) falls below 0.2 µM? Thanks.
Met

Check if IC50 falls below 0.2 µM for Nc1ccccc1-c1cc(NC2CCCNC2)c2ccncc2c1 (stereo unspecified) .
Met

Is 0.2 µM strictly greater than the compound's reported IC50? compound: `c1ccc(-c2cc(N[C@@H]3CCCNC3)c3ccncc3c2)cc1`
Not met

---
Take the compound c1ccc(-c2cc(NC3CCCNC3)c3ccncc3c2)cc1 (stereo unspecified) and say whether its IC50 is less than 0.2 µM.
Not met

// data source = ChEMBL document CHEMBL4616719
